Values compiled from ChEMBL document CHEMBL3124868.

Overview of reported Ratio IC50 across a group of molecules:
Experiment: Selectivity ratio of IC50 for equine serum BuChE to IC50 for electric eel AChE
The reply should be a number, written without any unit.

>  <mol>
C=CCNCc1cc2cc(OCCCC3CCN(Cc4ccccc4)CC3)ccc2n1C

>  <endpoint-result>
3.3

$$$$

--- query ---
// Input: `Cn1c(CN2CCOCC2)cc2cc(OCCCC3CCN(Cc4ccccc4)CC3)ccc21` . Output its Ratio IC50 only.
7.9

###

Below, each entry is listed alongside its reported Ratio IC50.
Species: Homo sapiens
Assay: Selectivity ratio of IC50 for human recombinant MAO-B to IC50 for human recombinant MAO-A

Supply measured Ratio IC50 of `Cn1c(C(=O)N2CCOCC2)cc2cc(OCCCC3CCN(Cc4ccccc4)CC3)ccc21` in your reply.
> 1

Assign Ratio IC50 to the following record: `Cn1c(CN2CCOCC2)cc2cc(OCCCC3CCN(Cc4ccccc4)CC3)ccc21`
> 22.7

Specify reported Ratio IC50 for the compound shown: `Cn1c(CNCc2ccccc2)cc2cc(OCCCC3CCN(Cc4ccccc4)CC3)ccc21`
> 1

Identify measured Ratio IC50 corresponding to `Cn1c(CNc2ccccc2)cc2cc(OCCCC3CCN(Cc4ccccc4)CC3)ccc21`
> 1

Tell me Ratio IC50 reported for `Cn1c(C(=O)NCc2ccccc2)cc2cc(OCCCC3CCN(Cc4ccccc4)CC3)ccc21`
> 1

// Input: `COc1ccc2c(c1)cc(CNCc1ccccc1)n2C` . Output its Ratio IC50 only.
> 1

Specify reported Ratio IC50 for the compound shown: `Cn1c(C(=O)O)cc2cc(OCCCC3CCN(Cc4ccccc4)CC3)ccc21`
> 1

Give reported Ratio IC50 value for `Cn1c(CO)cc2cc(OCCCC3CCN(Cc4ccccc4)CC3)ccc21`
> 23

Write down Ratio IC50 measured for item `COc1ccc2c(c1)cc(C(=O)NCc1ccccc1)n2C`
> 1

Hello, please tell me recorded Ratio IC50 for this one: `CCOC(=O)c1cc2cc(OCCCC3CCN(Cc4ccccc4)CC3)ccc2n1C`
> 65

###

For reference, pIC50 measured on Acetylcholinesterase (Electrophorus electricus):
# pIC50 = -log10(concentration in molar units)

>  <mol>
C#CCNC(=O)c1cc2cc(OCCCC3CCN(Cc4ccccc4)CC3)ccc2n1C

>  <endpoint-result>
6.89

$$$$

Okay, now this molecule:
Give pIC50; test system Acetylcholinesterase (Electrophorus electricus); molecule `C=CCNCc1cc2cc(OCCCC3CCN(Cc4ccccc4)CC3)ccc2n1C`
6.85

###

Experiment: Selectivity ratio of IC50 for equine serum BuChE to IC50 for electric eel AChE
The entries below come with measured Ratio IC50 values attached.
Please give only the number in your answer, with no unit.

See these solved cases before continuing.
>  <mol>
Cn1c(CNCc2ccccc2)cc2cc(OCCCC3CCN(Cc4ccccc4)CC3)ccc21

>  <measured-parameter>
Ratio IC50

>  <endpoint-result>
2

$$$$
>  <mol>
COc1ccc2c(c1)cc(CNCc1ccccc1)n2C

>  <measured-parameter>
Ratio IC50

>  <endpoint-result>
1.5

$$$$
>  <mol>
Cn1c(CNc2ccccc2)cc2cc(OCCCC3CCN(Cc4ccccc4)CC3)ccc21

>  <measured-parameter>
Ratio IC50

>  <endpoint-result>
10

$$$$

For `C#CCNCc1cc2cc(OCCCC3CCN(Cc4ccccc4)CC3)ccc2n1C` , write its Ratio IC50.
4.4
